B1: CAMK2D (parent)
chain: LLKHPNIVRLHDSISEEGFHYLVF

# Variants of: B1
# Test: protein stability index of a GFP-peptide fusion (GPS, HEK-293T) (PSI 1-6); higher = more stable;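 also: lentivirally expressed fusions sorted by FACS into six bins by GFP to DsRed ratio, PSI derived from sequencing read proportions per bin multiplied by bin number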
# Test Context: c terminus: a fixed tail appended
# reported protein stability index; entries follow

>  <Variant Description>
Y21P

>  <protein stability index>
1.96

$$$$
>  <Variant Description>
I14N

>  <protein stability index>
2.05

$$$$
>  <Variant Description>
G18I

>  <protein stability index>
2

$$$$

Source: the supplement of paper PMC10567573
